Recorded Tm, one value per entry.
Assay: melting temperature; melt of duplexes
Conditions: sodium 0.0675 M; strand 1 µM
Output spec: scalar in °C, unitless text.

Before answering, review these 6 worked examples.
QUERY: Could you tell me which Tm is on file for CGACGTGCCTTATGTGCTG+CAGCACATGTGGCACGTCG (((((((((..((((((((+))))))))..))))))))) ?
RESULT: 54.4

QUERY: Could you tell me which Tm is on file for CGACGTGCGTTATGTGCTG+CAGCACATTGTGCACGTCG ((((((((...((((((((+))))))))...)))))))) ?
RESULT: 47.2

QUERY: Could you tell me which Tm is on file for CGACGTGCAAGATGTGCTG+CAGCACATCGTGCACGTCG (((((((((.(((((((((+))))))))).))))))))) ?
RESULT: 57.4

QUERY: Could you tell me which Tm is on file for CGACGTGCTGTATGTGCTG+CAGCACATGGTGCACGTCG ((((((((...((((((((+))))))))...)))))))) ?
RESULT: 47.2

QUERY: Could you tell me which Tm is on file for CGACGTGCCTCATGTGCTG+CAGCACATCTAGCACGTCG ((((((((...((((((((+))))))))...)))))))) ?
RESULT: 47.8

QUERY: Could you tell me which Tm is on file for CGACGTGCCTGATGTGCTG+CAGCACATCCTGCACGTCG ((((((((..(((((((((+)))))))))..)))))))) ?
RESULT: 53.1

Further cases:
QUERY: Could you tell me which Tm is on file for CGACGTGCTTAATGTGCTG+CAGCACATAGAGCACGTCG (((((((((..((((((((+))))))))..))))))))) ?
RESULT: 53.1

* * *

Experiment: melting temperature; melt of duplexes
Conditions: sodium 0.0675 M; strand 1 µM
Recorded Tm, one value per entry.
Output spec: scalar in °C, unitless text.

Before answering, review these 3 worked examples.
QUERY: Could you tell me which Tm is on file for CGACGTGCGGCATGTGCTG+CAGCACATCCCGCACGTCG ((((((((((.((((((((+)))))))).)))))))))) ?
RESULT: 58.3

QUERY: Could you tell me which Tm is on file for CGACGTGCCACATGTGCTG+CAGCACATAAAGCACGTCG ((((((((...((((((((+))))))))...)))))))) ?
RESULT: 49.1

QUERY: Could you tell me which Tm is on file for CGACGTGCACCATGTGCTG+CAGCACATGAGGCACGTCG ((((((((..(((((((((+)))))))))..)))))))) ?
RESULT: 53.9

Turning now to a further record.
QUERY: Could you tell me which Tm is on file for CGACGTGCAGTATGTGCTG+CAGCACATAATGCACGTCG (((((((((.(((((((((+))))))))).))))))))) ?
RESULT: 57

* * *

Recorded Tm, one value per entry.
Assay: melting temperature; melt of duplexes
Conditions: sodium 0.0675 M; strand 1 µM

QUERY: Could you tell me which Tm is on file for CGACGTGCTTCATGTGCTG+CAGCACATCTCGCACGTCG ((((((((...((((((((+))))))))...)))))))) ?
RESULT: 47 °C

QUERY: Could you tell me which Tm is on file for CGACGTGCAACATGTGCTG+CAGCACATAAAGCACGTCG ((((((((...((((((((+))))))))...)))))))) ?
RESULT: 48.9 °C

QUERY: Could you tell me which Tm is on file for CGACGTGCGGGATGTGCTG+CAGCACATCTAGCACGTCG ((((((((..(((((((((+)))))))))..)))))))) ?
RESULT: 57.8 °C

QUERY: Could you tell me which Tm is on file for CGACGTGCCACATGTGCTG+CAGCACATAAGGCACGTCG (((((((((..((((((((+))))))))..))))))))) ?
RESULT: 54 °C

QUERY: Could you tell me which Tm is on file for CGACGTGCGACATGTGCTG+CAGCACATTTAGCACGTCG ((((((((.(.((((((((+)))))))).).)))))))) ?
RESULT: 52.2 °C

QUERY: Could you tell me which Tm is on file for CGACGTGCACGATGTGCTG+CAGCACATGGAGCACGTCG ((((((((.(.((((((((+)))))))).).)))))))) ?
RESULT: 50.5 °C

QUERY: Could you tell me which Tm is on file for CGACGTGCAGGATGTGCTG+CAGCACATGCTGCACGTCG ((((((((((.((((((((+)))))))).)))))))))) ?
RESULT: 59.6 °C
